System: Escherichia coli TOP10
protocol_description: shrunken log2 fold change of peptide-encoding DNA abundance (4.5 h post-induction vs induction); higher = less antimicrobial activity (less host growth inhibition)
assay_conditions: time post-induction: 4.5 h; library: site-saturation at positions 5, 18, 19, 20
Met means recorded shrunken log2 fold change is -0.1 or above; Not met means it is below -0.1.

>>> print(df.to_string())
            entry_sequence                  target  category
0  RRIRERPPRLPRPRPRPEIQPRP  Escherichia coli TOP10       Met
1  RRIRSRPPRLPRPRPRPCFCPRP  Escherichia coli TOP10   Not met
2  RRIRRRPPRLPRPRPRPLRPPRP  Escherichia coli TOP10       Met
3  RRIRYRPPRLPRPRPRPETVPRP  Escherichia coli TOP10       Met
4  RRIRARPPRLPRPRPRPTNQPRP  Escherichia coli TOP10       Met
5  RRIRHRPPRLPRPRPRPDRVPRP  Escherichia coli TOP10       Met
6  RRIRSRPPRLPRPRPRPGYNPRP  Escherichia coli TOP10   Not met
7  RRIRGRPPRLPRPRPRPVWLPRP  Escherichia coli TOP10       Met

Consider now this further sequence.
Query string: Could you tell me if the measured shrunken log2 fold change of RRIRYRPPRLPRPRPRPSFFPRP reaches -0.1 or more?
Result string: Not met

----------
Tested on: Escherichia coli TOP10
protocol_description: shrunken log2 fold change of peptide-encoding DNA abundance (4.5 h post-induction vs induction); higher = less antimicrobial activity (less host growth inhibition)
assay_conditions: time post-induction: 4.5 h; library: site-saturation at positions 5, 18, 19, 20
Quick list: shrunken log2 fold change per entry.
Respond with the number and no other words.

>>> df
            entry_sequence  numeric_readout
0  RRIRWRPPRLPRPRPRPNSDPRP           -0.258
1  RRIRQRPPRLPRPRPRPPTDPRP           0.0902
2  RRIRYRPPRLPRPRPRPMQQPRP          -0.0118

Okay, next one:
// sample RRIRWRPPRLPRPRPRPTWFPRP , its shrunken log2 fold change was -0.0378

----------
Quick list: shrunken log2 fold change per entry.
Test system: Escherichia coli TOP10
protocol_description: shrunken log2 fold change of peptide-encoding DNA abundance (4.5 h post-induction vs induction); higher = less antimicrobial activity (less host growth inhibition)
assay_conditions: time post-induction: 4.5 h; library: site-saturation at positions 5, 18, 19, 20
Respond with the number and no other words.

>>> df
            entry_sequence  numeric_readout
0  RRIRTRPPRLPRPRPRPPSVPRP            0.352

// sample RRIRSRPPRLPRPRPRPSMTPRP , its shrunken log2 fold change was -0.356

// sample RRIRPRPPRLPRPRPRPNMCPRP , its shrunken log2 fold change was -0.0958

// sample RRIRRRPPRLPRPRPRPHRGPRP , its shrunken log2 fold change was -0.0548

// sample RRIRCRPPRLPRPRPRPIPPPRP , its shrunken log2 fold change was 0.265

// sample RRIRCRPPRLPRPRPRPFSAPRP , its shrunken log2 fold change was -0.565

----------
Test system: Escherichia coli TOP10
protocol_description: shrunken log2 fold change of peptide-encoding DNA abundance (4.5 h post-induction vs induction); higher = less antimicrobial activity (less host growth inhibition)
assay_conditions: time post-induction: 4.5 h; library: site-saturation at positions 5, 18, 19, 20
true (1) means recorded shrunken log2 fold change is -0.05 or above; false (0) means it is below -0.05.

>>> print(df.to_string())
            entry_sequence  category
0  RRIRSRPPRLPRPRPRPHDQPRP  true (1)

Query string: Could you tell me if the measured shrunken log2 fold change of RRIRYRPPRLPRPRPRPDIHPRP reaches -0.05 or more?
Result string: false (0)

Query string: Could you tell me if the measured shrunken log2 fold change of RRIRQRPPRLPRPRPRPDQSPRP reaches -0.05 or more?
Result string: false (0)

Query string: Could you tell me if the measured shrunken log2 fold change of RRIRNRPPRLPRPRPRPVGSPRP reaches -0.05 or more?
Result string: true (1)

Query string: Could you tell me if the measured shrunken log2 fold change of RRIRGRPPRLPRPRPRPQGDPRP reaches -0.05 or more?
Result string: true (1)

----------
System: Escherichia coli TOP10
protocol_description: shrunken log2 fold change of peptide-encoding DNA abundance (4.5 h post-induction vs induction); higher = less antimicrobial activity (less host growth inhibition)
assay_conditions: time post-induction: 4.5 h; library: site-saturation at positions 5, 18, 19, 20
Quick list: shrunken log2 fold change per entry.
Respond with the number and no other words.

In [3]: df
Out[3]:
            entry_sequence  numeric_readout
0  RRIRCRPPRLPRPRPRPMCEPRP          -0.0476
1  RRIRDRPPRLPRPRPRPKQKPRP             0.03
2  RRIRNRPPRLPRPRPRPPPSPRP                1

Entry RRIRRRPPRLPRPRPRPIQEPRP : shrunken log2 fold change on Escherichia coli TOP10 = 0.0641

Entry RRIRLRPPRLPRPRPRPALEPRP : shrunken log2 fold change on Escherichia coli TOP10 = 0.155

Entry RRIRWRPPRLPRPRPRPKNGPRP : shrunken log2 fold change on Escherichia coli TOP10 = -0.156

Entry RRIRHRPPRLPRPRPRPFKTPRP : shrunken log2 fold change on Escherichia coli TOP10 = -0.256

Entry RRIRARPPRLPRPRPRPQRTPRP : shrunken log2 fold change on Escherichia coli TOP10 = 0.11

Entry RRIRCRPPRLPRPRPRPSMKPRP : shrunken log2 fold change on Escherichia coli TOP10 = -0.567

Entry RRIRPRPPRLPRPRPRPAKQPRP : shrunken log2 fold change on Escherichia coli TOP10 = 0.0651

Entry RRIRARPPRLPRPRPRPDMNPRP : shrunken log2 fold change on Escherichia coli TOP10 = 0.31

Entry RRIRVRPPRLPRPRPRPVMAPRP : shrunken log2 fold change on Escherichia coli TOP10 = 0.0266

Entry RRIRARPPRLPRPRPRPHPCPRP : shrunken log2 fold change on Escherichia coli TOP10 = 0.206

Entry RRIRGRPPRLPRPRPRPDQKPRP : shrunken log2 fold change on Escherichia coli TOP10 = 0.0127

Entry RRIRNRPPRLPRPRPRPLECPRP : shrunken log2 fold change on Escherichia coli TOP10 = -0.311

Entry RRIRKRPPRLPRPRPRPFTCPRP : shrunken log2 fold change on Escherichia coli TOP10 = 0.182

Entry RRIRSRPPRLPRPRPRPKWWPRP : shrunken log2 fold change on Escherichia coli TOP10 = 0.0275

Entry RRIRGRPPRLPRPRPRPIYMPRP : shrunken log2 fold change on Escherichia coli TOP10 = -0.191

Entry RRIRARPPRLPRPRPRPTDHPRP : shrunken log2 fold change on Escherichia coli TOP10 = 0.0934

Entry RRIRCRPPRLPRPRPRPCWTPRP : shrunken log2 fold change on Escherichia coli TOP10 = -0.223

----------
Test system: Escherichia coli TOP10;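 further: peptides expressed intracellularly from a pBAD plasmid library in pooled LB shake-flask culture, induced with 0.3% L-arabinose, DNA abundance read by NGS, three biological replicates, DESeq2 with apeglm shrinkage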
protocol_description: shrunken log2 fold change of peptide-encoding DNA abundance (4.5 h post-induction vs induction); higher = less antimicrobial activity (less host growth inhibition)
assay_conditions: time post-induction: 4.5 h; library: site-saturation at positions 5, 18, 19, 20
Quick list: shrunken log2 fold change per entry.
Respond with the number and no other words.

In [3]: df
Out[3]:
            entry_sequence                  target  numeric_readout
0  RRIRFRPPRLPRPRPRPADLPRP  Escherichia coli TOP10           -0.294
1  RRIRLRPPRLPRPRPRPSMWPRP  Escherichia coli TOP10           0.0718

Entry RRIRTRPPRLPRPRPRPEEMPRP : shrunken log2 fold change on Escherichia coli TOP10 = 0.133

Entry RRIRQRPPRLPRPRPRPSRSPRP : shrunken log2 fold change on Escherichia coli TOP10 = -0.117

Entry RRIRFRPPRLPRPRPRPLDMPRP : shrunken log2 fold change on Escherichia coli TOP10 = -0.372

Entry RRIRGRPPRLPRPRPRPVWFPRP : shrunken log2 fold change on Escherichia coli TOP10 = 0.239

Entry RRIRTRPPRLPRPRPRPANHPRP : shrunken log2 fold change on Escherichia coli TOP10 = -0.179

Entry RRIRCRPPRLPRPRPRPAHQPRP : shrunken log2 fold change on Escherichia coli TOP10 = 0.133

Entry RRIRVRPPRLPRPRPRPEFQPRP : shrunken log2 fold change on Escherichia coli TOP10 = -0.0311

Entry RRIRGRPPRLPRPRPRPYIYPRP : shrunken log2 fold change on Escherichia coli TOP10 = -0.13

Entry RRIRARPPRLPRPRPRPDCVPRP : shrunken log2 fold change on Escherichia coli TOP10 = 0.813

Entry RRIRIRPPRLPRPRPRPLGGPRP : shrunken log2 fold change on Escherichia coli TOP10 = 0.00908

Entry RRIRFRPPRLPRPRPRPQYKPRP : shrunken log2 fold change on Escherichia coli TOP10 = -0.755

Entry RRIRWRPPRLPRPRPRPRFKPRP : shrunken log2 fold change on Escherichia coli TOP10 = 0.0187

Entry RRIRARPPRLPRPRPRPDGHPRP : shrunken log2 fold change on Escherichia coli TOP10 = 0.0106
